Measured IC50, listed per entry for reference.
Biological target: Mushroom TYR (EC 1.14.18.1) (Agaricus bisporus)
Test: biochemical
Conditions: IC50 value ± SD, L-dopa, substrate L-dopa (diphenolase); n = 3; screening of de novo generated compounds (Table 1)

Examples from the recorded data:
>>> experimental_result("O=C(Oc1ccc(N2CCNCC2)cc1)c1cc(O)nc2ccccc12 [XVII]")
"303 µM"
>>> experimental_result("O=C(NCc1ccc(F)cc1)c1cc(O)nc2ccccc12 [VI]")
"> 800 µM"
>>> experimental_result("NC(=O)[C@H](Cc1ccccc1)NC(=O)CCc1cccc(O)c1 [II]")
"> 800 µM"
>>> experimental_result("O=C(/C=C/c1ccccc1)N1CCN(c2cccc(O)c2)CC1 [XII]")
"199 µM"
>>> experimental_result("O=C(NCCc1cccc(O)c1)c1cccc2ncccc12 [VIII]")
"> 800 µM"
>>> experimental_result("Cc1nc2ccc(C(=O)NCc3ccc(O)cc3)cc2[nH]1 [XIII]")
"> 800 µM"

Look up Mushroom TYR (EC 1.14.18.1) (Agaricus bisporus) data: IC50 of NC(=O)[C@H](Cc1ccccc1)NC(=O)c1cccc(O)c1 [III] , then report it.
> 800 µM

* * *

Target: Mushroom TYR (EC 1.14.18.1) (Agaricus bisporus, UniProt C7FF04)
Sequence (C7FF04 1-392 limits assumed): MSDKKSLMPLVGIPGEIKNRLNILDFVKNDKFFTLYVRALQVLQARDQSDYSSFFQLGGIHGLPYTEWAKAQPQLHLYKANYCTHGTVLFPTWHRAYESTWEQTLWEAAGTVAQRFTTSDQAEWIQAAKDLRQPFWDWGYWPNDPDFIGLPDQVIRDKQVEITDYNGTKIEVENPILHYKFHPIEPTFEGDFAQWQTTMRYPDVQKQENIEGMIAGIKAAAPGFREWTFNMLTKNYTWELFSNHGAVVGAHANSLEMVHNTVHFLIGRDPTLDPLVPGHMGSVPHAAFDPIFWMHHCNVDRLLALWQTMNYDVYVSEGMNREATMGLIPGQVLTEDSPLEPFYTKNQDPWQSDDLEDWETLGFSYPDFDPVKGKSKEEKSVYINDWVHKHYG
Assay: biochemical
Conditions: IC50 value ± SD, L-tyrosine
pIC50: −log10 of the molar value.
Readout type: pIC50

>>> experimental_result("O=C(CCc1cccc(O)c1)NCCNCc1ccc(F)cc1 [Compound V-8]")
3.53
>>> experimental_result("O=C(CCc1cccc(O)c1)N1CCCN(Cc2ccc(F)cc2)CC1 [Compound V-6]")
4.05
>>> experimental_result("O=C(CCc1ccc(O)cc1)N1CCN(Cc2ccc(F)cc2)CC1 [Compound V-4]")
5.54

[P] Cc1ccc(CN2CCN(C(=O)CCc3cccc(O)c3)CC2)cc1 [Compound V-11]
[Q] O=C(CCc1ccc(O)cc1O)N1CCN(Cc2ccc(Cl)cc2)CC1 [Compound V-31]
Parameter metric = pIC50. Return the lower-valued option from P and Q . Mark your selection by writing its label.
P

[I] O=C(CCc1cccc(O)c1)N1CCN(Cc2ccccc2F)CC1 [Compound V-1]
[II] N#Cc1ccc(CN2CCN(C(=O)/C=C/c3ccc(O)cc3O)CC2)cc1 [Compound V-34]
Look at I and II . Which one has the lower recorded pIC50 number? // output: label of the selected item
I

[A] COc1ccc(CN2CCN(C(=O)CCc3cccc(O)c3)CC2)cc1 [Compound V-13]
[B] O=C(CCc1cccc(O)c1)N1CCN(Cc2cccc(Cl)c2)CC1 [Compound V-10]
Which has the higher pIC50, A or B ? Selection: enter the item's label.
B

* * *

Target: Mushroom TYR (EC 1.14.18.1) (Agaricus bisporus)
Assay: biochemical
Conditions: IC50 value ± SD, L-dopa
Readout type: IC50 (µM)

>>> experimental_result("O=C(CCc1ccc(O)cc1O)N1CCN(Cc2cccc(Cl)c2)CC1 [Compound V-29]")
0.189

[I] O=C(/C=C/c1ccc(O)cc1O)N1CCN(Cc2cccc(Cl)c2)CC1 [Compound V-30]
[II] N#Cc1ccc(CN2CCN(C(=O)CCc3cccc(O)c3)CC2)cc1 [Compound V-14]
[III] O=C(CCc1ccc(O)cc1O)N1CCN(Cc2ccc(Cl)cc2)CC1 [Compound V-31]
[IV] O=C(CCc1ccc(O)cc1)N1CCN(Cc2ccc(F)cc2)CC1 [Compound V-4]
Arrange these molecules by their IC50, starting with the largest number. Return the labels ranked in the requested order, please.
II, IV, III, I
